Values compiled from patent US8673969B2.

// melting point lookup, one value per entry

{"molecule": "COc1ccc(F)c(/C=C(/C(=O)N[C@@H]2c3cc4c(cc3[C@@H](c3cc(OC)c(OC)c(OC)c3)[C@H]3C(=O)OC[C@@H]32)OCO4)c2cc(OC)c(OC)c(OC)c2)c1 [Compound 3e]", "melting point": "123 to 126 °C"}
{"molecule": "COc1cc(/C(=C\\c2ccc([N+](=O)[O-])cc2)C(=O)N[C@@H]2c3cc4c(cc3[C@@H](c3cc(OC)c(OC)c(OC)c3)[C@H]3C(=O)OC[C@@H]32)OCO4)cc(OC)c1OC [Compound 3i]", "melting point": "187 to 190 °C"}
{"molecule": "COc1cccc(/C=C(/C(=O)N[C@@H]2c3cc4c(cc3[C@@H](c3cc(OC)c(OC)c(OC)c3)[C@H]3C(=O)OC[C@@H]32)OCO4)c2cc(OC)c(OC)c(OC)c2)c1 [Compound 3o]", "melting point": "187 to 190 °C"}
{"molecule": "COc1ccccc1/C(=C\\c1ccccc1[N+](=O)[O-])C(=O)N[C@@H]1c2cc3c(cc2[C@@H](c2cc(OC)c(OC)c(OC)c2)[C@H]2C(=O)OC[C@@H]21)OCO3 [Compound 3m]", "melting point": "187 to 190 °C"}
{"molecule": "COc1ccc(/C=C(/C(=O)N[C@@H]2c3cc4c(cc3[C@@H](c3cc(OC)c(OC)c(OC)c3)[C@H]3C(=O)OC[C@@H]32)OCO4)c2cc(OC)c(OC)c(OC)c2)cc1O [Compound 3b]", "melting point": "145 to 147 °C"}
